The measured values listed here are drawn from ChEMBL document CHEMBL4043157.

test: Cytotoxicity in Schizosaccharomyces pombe assessed as cell viability at 10 ug/ml (reference value: 94.67 +/- 1.53%); details: Schizosaccharomyces pombe cells, read-out: Activity
Kindly apply the following: YES if viability at 10 ug/ml is less than 70%, NO in every other case.

Challenge: Please determine if C(=N\c1nc2ccccc2s1)/c1cccs1 is below 70% in terms of viability at 10 ug/ml.
Response given: YES

Challenge: Cool, now Oc1ccc(/C=N/c2nc3ccccc3s2)cc1
Response given: YES

Challenge: Next: Clc1ccc(/C=N/c2nc3ccccc3s2)cc1Cl
Response given: NO

Challenge: Next compound: Clc1ccc(/C=N/c2nc3ccccc3s2)cc1
Response given: NO

Challenge: Now the same for O=[N+]([O-])c1ccccc1/C=N/c1nc2ccccc2s1
Response given: NO

---

test system: Schizosaccharomyces pombe; assay: Genotoxicity in Schizosaccharomyces pombe assessed as induction of DNA damage by measuring appearance of DNA smear DNA band at 2 to 10 ug/ml by agarose gel electrophoresis
readoutKind: Activity

O=[N+]([O-])c1cccc(/C=N/c2nc3ccccc3s2)c1 ... Toxic
O=[N+]([O-])c1ccccc1/C=N/c1nc2ccccc2s1 ... Toxic
C(=N\c1nc2ccccc2s1)/c1cccs1 ... Toxic

---

experiment: Cytotoxicity in Schizosaccharomyces pombe assessed as cell viability at 8 ug/ml (reference value: 94.67 +/- 1.53%); conditions: Schizosaccharomyces pombe cells, read-out: Activity
readoutKind: viability at 8 ug/ml

Fc1ccc(/C=N/c2nc3ccccc3s2)cc1 ... 72.3%
Brc1ccc(/C=N/c2nc3ccccc3s2)cc1 ... 68.3%

Next molecule, viability at 8 ug/ml to be filled in.
Challenge: Name the reported viability at 8 ug/ml value associated with the molecule O=[N+]([O-])c1cccc(/C=N/c2nc3ccccc3s2)c1
Response given: 74.7%

---

assay: Cytotoxicity in Schizosaccharomyces pombe assessed as cell viability at 2 ug/ml (reference value: 94.67 +/- 1.53%); details: Schizosaccharomyces pombe cells, read-out: Activity
Attribute: viability at 2 ug/ml
Respond with the bare value in %.

Some molecules with recorded viability at 2 ug/ml:
O=[N+]([O-])c1cccc(/C=N/c2nc3ccccc3s2)c1 ... 88.7
C(=N\c1nc2ccccc2s1)/c1ccc[nH]1 ... 87
Oc1ccc(/C=N/c2nc3ccccc3s2)cc1 ... 87

Read the next record carefully.
Challenge: Need viability at 2 ug/ml of Fc1ccc(/C=N/c2nc3ccccc3s2)cc1 , thanks.
Response given: 86.3

---

Recorded measurements of viability at 10 ug/ml, one per entry
assay: Cytotoxicity in Schizosaccharomyces pombe assessed as cell viability at 10 ug/ml (reference value: 94.67 +/- 1.53%); details: Schizosaccharomyces pombe cells, read-out: Activity
Please reply with the bare figure in % and do not write the unit itself.

C(=N\c1nc2ccccc2s1)/c1ccc[nH]1 ... 69.7
C(=N\c1nc2ccccc2s1)/c1ccco1 ... 61.7

Continue with the next compound.
Challenge: May I ask what viability at 10 ug/ml has been recorded for Brc1ccc(/C=N/c2nc3ccccc3s2)cc1 ?
Response given: 66.3

---

Measured viability at 2 ug/ml by item
assay: Cytotoxicity in Schizosaccharomyces pombe assessed as cell viability at 2 ug/ml (reference value: 94.67 +/- 1.53%); settings: Schizosaccharomyces pombe cells, read-out: Activity
Hi! Could you send only the number? It should be in %, unit omitted.

Study these solved cases before continuing.
Clc1ccc(/C=N/c2nc3ccccc3s2)cc1 ... 89.3
Clc1ccc(/C=N/c2nc3ccccc3s2)cc1Cl ... 89

# context switch: different compound, same viability at 2 ug/ml
Challenge: Form field: reported viability at 2 ug/ml of O=[N+]([O-])c1ccccc1/C=N/c1nc2ccccc2s1
Response given: 84.3

---

experiment: Cytotoxicity in Schizosaccharomyces pombe assessed as cell viability at 8 ug/ml (reference value: 94.67 +/- 1.53%); conditions: Schizosaccharomyces pombe cells, read-out: Activity
readoutKind: viability at 8 ug/ml (%)
# value in %; strip the unit string

Below, 3 molecules whose answers are already recorded.
O=[N+]([O-])c1ccccc1/C=N/c1nc2ccccc2s1 ... 77
C(=N\c1nc2ccccc2s1)/c1ccc[nH]1 ... 71.7
C(=N\c1nc2ccccc2s1)/c1cccs1 ... 73

Turning now to a further record.
Challenge: What value of measured viability at 8 ug/ml is listed for Clc1ccc(/C=N/c2nc3ccccc3s2)cc1Cl ?
Response given: 77

---

Listed below: viability at 4 ug/ml values for each entry.
experiment: Cytotoxicity in Schizosaccharomyces pombe assessed as cell viability at 4 ug/ml (reference value: 94.67 +/- 1.53%); details: Schizosaccharomyces pombe cells, read-out: Activity
Report the figure in % without appending any unit label.

Challenge: What value of viability at 4 ug/ml has been recorded for this entry: Clc1ccc(/C=N/c2nc3ccccc3s2)cc1
Response given: 87

Challenge: Also check Brc1ccc(/C=N/c2nc3ccccc3s2)cc1
Response given: 73.3

Challenge: What do you have for C(=N\c1nc2ccccc2s1)/c1ccco1 ?
Response given: 73

---

The entries below come with measured viability at 6 ug/ml values attached.
experiment: Cytotoxicity in Schizosaccharomyces pombe assessed as cell viability at 6 ug/ml (reference value: 94.67 +/- 1.53%); settings: Schizosaccharomyces pombe cells, read-out: Activity

Look over these answered cases.
Brc1ccc(/C=N/c2nc3ccccc3s2)cc1 ... 72.3%
C(=N\c1nc2ccccc2s1)/c1cccs1 ... 80.7%
Clc1ccc(/C=N/c2nc3ccccc3s2)cc1 ... 82.7%

Would you kindly look at the next entry?
Challenge: Please report the recorded viability at 6 ug/ml for O=[N+]([O-])c1cccc(/C=N/c2nc3ccccc3s2)c1 .
Response given: 79.3%

---

Molecular target: UniProt P00376
Sequence (P00376 whole entry): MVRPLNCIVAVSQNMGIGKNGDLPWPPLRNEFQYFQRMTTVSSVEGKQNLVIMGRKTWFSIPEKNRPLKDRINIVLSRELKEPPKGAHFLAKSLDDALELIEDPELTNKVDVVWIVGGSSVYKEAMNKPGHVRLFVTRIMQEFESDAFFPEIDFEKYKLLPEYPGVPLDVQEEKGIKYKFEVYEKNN
readoutKind: pIC50
On this scale, pIC50 is minus log10 of a concentration expressed in M (mol/L).

Challenge: Entry Brc1ccc(/C=N/c2nc3ccccc3s2)cc1 has what pIC50?
Response given: 7.34

---

test: Cytotoxicity in Schizosaccharomyces pombe assessed as cell viability at 2 ug/ml (reference value: 94.67 +/- 1.53%); details: Schizosaccharomyces pombe cells, read-out: Activity
readoutKind: viability at 2 ug/ml (%)
The figure you give is taken to be in %; do not add the unit.

For orientation, consider the following solved cases.
C(=N\c1nc2ccccc2s1)/c1ccco1 ... 78.7
Brc1ccc(/C=N/c2nc3ccccc3s2)cc1 ... 77.3

// switching to the query compound
Challenge: Bench note: what viability at 2 ug/ml did C(=N\c1nc2ccccc2s1)/c1cccs1 show?
Response given: 86

---

assay: Cytotoxicity in Schizosaccharomyces pombe assessed as cell viability at 8 ug/ml (reference value: 94.67 +/- 1.53%); conditions: Schizosaccharomyces pombe cells, read-out: Activity
readoutKind: viability at 8 ug/ml (%)
Provide the reading as a plain figure in %.

Oc1ccc(/C=N/c2nc3ccccc3s2)cc1 ... 68.3
Clc1ccc(/C=N/c2nc3ccccc3s2)cc1 ... 78

Challenge: Could you share which viability at 8 ug/ml value was measured for C(=N\c1nc2ccccc2s1)/c1ccco1 ?
Response given: 62.3

---

test: Cytotoxicity in Schizosaccharomyces pombe assessed as cell viability at 4 ug/ml (reference value: 94.67 +/- 1.53%); details: Schizosaccharomyces pombe cells, read-out: Activity
readoutKind: viability at 4 ug/ml (%)
Report the value in % with no unit label.

Challenge: viability at 4 ug/ml lookup needed for Fc1ccc(/C=N/c2nc3ccccc3s2)cc1 , thanks.
Response given: 81.7

Challenge: // same read-out, input: O=[N+]([O-])c1ccccc1/C=N/c1nc2ccccc2s1
Response given: 82

Challenge: Check Oc1ccc(/C=N/c2nc3ccccc3s2)cc1 too.
Response given: 75

Challenge: Next up: C(=N\c1nc2ccccc2s1)/c1cccs1
Response given: 81.7

Challenge: Same for O=[N+]([O-])c1cccc(/C=N/c2nc3ccccc3s2)c1
Response given: 84

Challenge: Also, Clc1ccc(/C=N/c2nc3ccccc3s2)cc1Cl please.
Response given: 84.3

Challenge: Another molecule to check: C(=N\c1nc2ccccc2s1)/c1ccc[nH]1
Response given: 82.3

---

The entries below are paired with their reported viability at 6 ug/ml.
experiment: Cytotoxicity in Schizosaccharomyces pombe assessed as cell viability at 6 ug/ml (reference value: 94.67 +/- 1.53%); details: Schizosaccharomyces pombe cells, read-out: Activity
Return type: number; implicit unit %.

Clc1ccc(/C=N/c2nc3ccccc3s2)cc1Cl ... 81
C(=N\c1nc2ccccc2s1)/c1ccc[nH]1 ... 74.3
Oc1ccc(/C=N/c2nc3ccccc3s2)cc1 ... 69.3
C(=N\c1nc2ccccc2s1)/c1ccco1 ... 64
Fc1ccc(/C=N/c2nc3ccccc3s2)cc1 ... 73

Next up:
Challenge: Which viability at 6 ug/ml value belongs to O=[N+]([O-])c1ccccc1/C=N/c1nc2ccccc2s1 ?
Response given: 79.7
